This collection of values is drawn from ChEMBL document CHEMBL5614396.

System: THP-1
protocolText: Vaccine adjuvant activity in human THP-1 cells expressing CD63-Turbo-luciferase and CD9-Emerald green fluorescent protein reporter assessed as extracellular vesicle release by measuring reporter activation at 10 uM incubated for 48 hrs by TurboLuc luciferase based chemiluminescence assay (reference value: 0%)
Type: functional
Activity values by entry
Write the value in % as a bare number.

- givenSmiles: "CCCCCCOC(=O)c1c(NS(=O)(=O)c2cccc3nsnc23)sc(C)c1C"
  studyTarget: "THP-1"
  Activity [%]: 185.3

Query: Dear colleague, please send me the reported Activity for `CCOC(=O)c1c(NS(=O)(=O)c2cccc3nsnc23)sc2c1CCN(CC)C2` when you can.
Reply: 1.3

Query: Dear colleague, please send me the reported Activity for `CCOC(=O)c1c(NS(=O)(=O)c2cccc3nsnc23)sc2c1CCCC2` when you can.
Reply: 156.9
